- assay remarks: TRM-201-PK-102 single-dose four-period crossover pharmacokinetic study, fasted healthy subjects
- Type: in vivo, human
- cond: human, plasma, oral, 25 mg, 102 study, 53-60 years, read-out: geometric mean AUC0-∞
property measured: AUC(0-inf) (ng·h/mL)
Numbers only, in ng·h/mL.

Entry CS(=O)(=O)c1ccc(C2=C(c3ccccc3)C(=O)OC2)cc1 [TRM-201] — recorded AUC(0-inf) = 4880

----------
- assay remarks: TRM-201-PK-102 single-dose four-period crossover pharmacokinetic study, fasted healthy subjects
- Type: in vivo, human
- cond: human, plasma, oral, 25 mg, 102 study, Black or African-American subjects, read-out: geometric mean AUC0-∞
property measured: AUC(0-inf) (ng·h/mL)
Give bare numbers, in ng·h/mL.

Value of measured AUC(0-inf) for the entry CS(=O)(=O)c1ccc(C2=C(c3ccccc3)C(=O)OC2)cc1 [TRM-201] : 3940
